// data source = patent US20090325290A1

Biological target: human-mouse chimeric molecule DR-IE (human; mouse)
Assay: cell-based or functional assay
observable: IC50, inhibition of IL-2 secretion of T-Hyb 1 cells

1. MS-GPC-8 (Fab form) (Fab, V domains shown, Fab: VH-CH1-FLAG-STREP tag II; also called B8-Fab; B8) VH: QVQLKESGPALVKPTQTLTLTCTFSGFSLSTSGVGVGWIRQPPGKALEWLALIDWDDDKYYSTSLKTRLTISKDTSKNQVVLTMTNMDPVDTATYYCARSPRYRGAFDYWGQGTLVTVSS VL: DIVLTQPPSVSGAPGQRVTISCSGSSSNIGSNYVSWYQQLPGTAPKLLIYDNNQRPSGVPDRFSGSKSGTSASLAITGLQSEDEADYYCQSYDMPQAVFGGGTKLTVLG    110 nM ((Fab)/2)

Below: the item to evaluate.
Query block: So what's the measured IC50, inhibition of IL-2 secretion of T-Hyb 1 cells for this one? MS-GPC-8-6-47 (Fab form) (Fab, V domains shown, Fab: VH-CH1-FLAG-STREP tag II) VH: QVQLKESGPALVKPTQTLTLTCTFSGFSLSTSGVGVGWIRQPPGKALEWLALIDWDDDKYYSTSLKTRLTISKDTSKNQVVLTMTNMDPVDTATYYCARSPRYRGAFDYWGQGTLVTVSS VL: DIVLTQPPSVSGAPGQRVTISCSGSESNIGSNYVSWYQQLPGTAPKLLIYDNNQRPSGVPDRFSGSKSGTSASLAITGLQSEDEADYYCQSYDYDHYVFGGGTKLTVLG
Result block: 2.6 nM ((Fab)/2)
